# Test: Water solubility of the supported enzyme
# Assay type: physicochemical
# Stated conditions: papain grafted onto DAS preparations of variable aldehyde titre
Test readout: WATER SOLUBILITY

* DAS.4: papain grafted onto starch polyaldehyde (DAS) of aldehyde titre 4.68 x 10⁻³ meq CHO/mg and reduced with sodium borohydride (conjugate, UniProt P00784 134-345, looked up, grafted onto starch polyaldehyde, borohydride-reduced, papain grafted onto starch polyaldehyde (DAS) of aldehyde titre 4.68 x 10⁻³ meq CHO/mg and reduced with sodium borohydride) Papain: IPEYVDWRQKGAVTPVKNQGSCGSCWAFSAVVTIEGIIKIRTGNLNEYSEQELLDCDRRSYGCNGGYPWSALQLVAQYGIHYRNTYPYEGVQRYCRSREKGPYAAKTDGVRQVQPYNEGALLYSIANQPVSVVLEAAGKDFQLYRGGIFVGPCGNKVDHAVAAVGYGPNYILIKNSWGTGWGENGYIRIKRGTGNSYGVCGLYTSSFYPVKN | YES
* DAS.3: papain grafted onto starch polyaldehyde (DAS) of aldehyde titre 8 x 10⁻³ meq CHO/mg and reduced with sodium borohydride (conjugate, UniProt P00784 134-345, looked up, grafted onto starch polyaldehyde, borohydride-reduced, papain grafted onto starch polyaldehyde (DAS) of aldehyde titre 8 x 10⁻³ meq CHO/mg and reduced with sodium borohydride) Papain: IPEYVDWRQKGAVTPVKNQGSCGSCWAFSAVVTIEGIIKIRTGNLNEYSEQELLDCDRRSYGCNGGYPWSALQLVAQYGIHYRNTYPYEGVQRYCRSREKGPYAAKTDGVRQVQPYNEGALLYSIANQPVSVVLEAAGKDFQLYRGGIFVGPCGNKVDHAVAAVGYGPNYILIKNSWGTGWGENGYIRIKRGTGNSYGVCGLYTSSFYPVKN | YES
